STUDY_SYSTEM: α1G T-type calcium ion channel (Homo sapiens)
Construct: host or cells: HEK293 stably expressing α1G and Kir2.1, selected with G-418
Sequence (O43497 whole entry): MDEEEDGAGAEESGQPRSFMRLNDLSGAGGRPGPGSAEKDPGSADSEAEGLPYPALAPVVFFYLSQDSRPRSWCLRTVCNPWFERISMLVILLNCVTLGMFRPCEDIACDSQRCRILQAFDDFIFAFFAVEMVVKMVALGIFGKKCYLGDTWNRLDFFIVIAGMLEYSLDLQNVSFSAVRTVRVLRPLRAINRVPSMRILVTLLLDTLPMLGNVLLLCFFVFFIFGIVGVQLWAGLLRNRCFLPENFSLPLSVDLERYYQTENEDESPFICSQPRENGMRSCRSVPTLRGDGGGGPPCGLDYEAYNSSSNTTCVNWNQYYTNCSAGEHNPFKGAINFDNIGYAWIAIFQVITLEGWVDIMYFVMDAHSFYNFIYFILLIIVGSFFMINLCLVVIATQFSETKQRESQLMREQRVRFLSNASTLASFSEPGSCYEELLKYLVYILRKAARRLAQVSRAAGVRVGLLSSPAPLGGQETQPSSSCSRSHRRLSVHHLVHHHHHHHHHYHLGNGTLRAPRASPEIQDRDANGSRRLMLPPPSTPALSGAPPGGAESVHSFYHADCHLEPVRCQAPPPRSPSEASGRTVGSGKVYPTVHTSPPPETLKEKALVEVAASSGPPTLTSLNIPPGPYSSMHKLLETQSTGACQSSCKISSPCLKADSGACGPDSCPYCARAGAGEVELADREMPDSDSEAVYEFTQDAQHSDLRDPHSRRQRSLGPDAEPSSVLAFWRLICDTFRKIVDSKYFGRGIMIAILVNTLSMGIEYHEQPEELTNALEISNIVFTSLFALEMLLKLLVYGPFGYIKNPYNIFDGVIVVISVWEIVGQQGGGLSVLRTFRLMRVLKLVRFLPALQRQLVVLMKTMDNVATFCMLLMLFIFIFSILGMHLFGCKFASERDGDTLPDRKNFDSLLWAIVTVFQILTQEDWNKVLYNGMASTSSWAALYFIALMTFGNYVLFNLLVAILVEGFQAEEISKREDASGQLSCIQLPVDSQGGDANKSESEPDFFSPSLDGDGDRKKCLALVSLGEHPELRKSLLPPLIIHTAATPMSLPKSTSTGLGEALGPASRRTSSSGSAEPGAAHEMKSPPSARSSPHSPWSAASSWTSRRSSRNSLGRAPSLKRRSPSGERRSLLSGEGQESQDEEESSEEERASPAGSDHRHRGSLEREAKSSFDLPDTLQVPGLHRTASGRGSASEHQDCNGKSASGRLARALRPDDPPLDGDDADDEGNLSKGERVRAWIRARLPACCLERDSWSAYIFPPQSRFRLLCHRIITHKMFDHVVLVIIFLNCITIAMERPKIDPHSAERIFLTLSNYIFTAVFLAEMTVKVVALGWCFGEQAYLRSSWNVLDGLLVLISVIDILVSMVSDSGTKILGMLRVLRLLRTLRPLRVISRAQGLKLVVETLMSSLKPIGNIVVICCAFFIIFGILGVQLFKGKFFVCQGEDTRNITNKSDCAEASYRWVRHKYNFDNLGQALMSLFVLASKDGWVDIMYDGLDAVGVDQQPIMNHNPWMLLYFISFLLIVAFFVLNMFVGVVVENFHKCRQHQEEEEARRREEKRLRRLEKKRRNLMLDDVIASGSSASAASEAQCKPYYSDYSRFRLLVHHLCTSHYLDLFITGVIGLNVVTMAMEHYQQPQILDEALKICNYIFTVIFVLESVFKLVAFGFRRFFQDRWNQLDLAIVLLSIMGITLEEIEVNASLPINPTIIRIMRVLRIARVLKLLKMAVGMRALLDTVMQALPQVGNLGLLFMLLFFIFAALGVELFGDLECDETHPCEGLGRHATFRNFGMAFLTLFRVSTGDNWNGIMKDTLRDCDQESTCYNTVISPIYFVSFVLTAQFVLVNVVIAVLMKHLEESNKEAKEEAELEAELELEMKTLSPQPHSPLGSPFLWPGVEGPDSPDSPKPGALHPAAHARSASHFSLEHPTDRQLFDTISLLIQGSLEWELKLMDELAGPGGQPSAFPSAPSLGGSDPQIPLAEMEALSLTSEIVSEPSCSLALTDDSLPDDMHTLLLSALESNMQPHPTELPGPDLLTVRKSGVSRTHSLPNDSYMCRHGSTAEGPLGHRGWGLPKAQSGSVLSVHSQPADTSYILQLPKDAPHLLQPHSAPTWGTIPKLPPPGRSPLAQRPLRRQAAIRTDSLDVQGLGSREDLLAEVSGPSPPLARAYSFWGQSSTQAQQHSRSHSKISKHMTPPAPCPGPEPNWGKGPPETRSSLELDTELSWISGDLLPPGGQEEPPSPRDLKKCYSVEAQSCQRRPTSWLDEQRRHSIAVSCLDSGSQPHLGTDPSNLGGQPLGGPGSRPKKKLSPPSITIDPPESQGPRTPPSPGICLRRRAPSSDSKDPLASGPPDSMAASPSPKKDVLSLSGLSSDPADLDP
TEST_NAME: Antagonistic activity against T-type calcium ion channel, α1G (FDSS6000 screening / whole cell patch clamp in HEK293 cells)
Format: cell-based
REPORTED_CONDITIONS: HEK293 cells expressing α1G
PROPERTY: inhibition at 10 µM (%)
Give the value, in units of %, as a plain number.

// known answers, use as guide
Cc1c(CNS(=O)(=O)c2ccccc2)nn(-c2ccccc2)c1CC(C)C; 70.5
CC(C)Cc1cc(CNS(=O)(=O)c2cccc3cccnc23)nn1-c1ccccc1; 29.8
CC(C)Cc1cc(CNS(=O)(=O)c2ccccc2)nn1-c1ccc(F)cc1; 45.6
CC(C)Cc1cc(CNS(=O)(=O)c2ccccc2)nn1-c1ccccc1; 61.4
Cc1c(CNS(=O)(=O)c2ccc3ccccc3c2)nn(-c2ccccc2)c1CC(C)C; 74.2
Cc1ccc(S(=O)(=O)NCc2cc(CC(C)C)n(-c3ccccc3)n2)cc1; 57.3
CC(C)Cc1cc(CNS(=O)(=O)c2cccc(F)c2)nn1-c1ccccc1; 64.1
CC(C)Cc1cc(CNS(=O)(=O)c2cccc(Cl)c2)nn1-c1ccccc1; 57.6
CC(C)Cc1cc(CNS(=O)(=O)Cc2ccccc2)nn1-c1ccccc1; 65.7
CC(C)Cc1cc(CNS(=O)(=O)c2c(F)cccc2F)nn1-c1ccccc1; 45.1

Consider now this further compound.
GET /value?item= CC(C)Cc1cc(CN2Cc3ccccc3S2(=O)=O)nn1-c1ccccc1 &field=inhibition at 10 µM returns 67.9

* * *

In this section, each of the compounds is paired with its reported Inhibition % α1G (10 μM).
STUDY_SYSTEM: α1G T-type calcium ion channel (Homo sapiens)
Construct: host or cells: HEK293 stably expressing α1G and Kir2.1, selected with G-418
TEST_NAME: Antagonistic activity against T-type calcium ion channel, α1G (FDSS6000 screening / whole cell patch clamp in HEK293 cells)
Type: cell-based
REPORTED_CONDITIONS: HEK293 cells expressing α1G
Answer in %, number only, no unit symbol.

CC(C)(C)n1nc(CN2Cc3ccccc3S2(=O)=O)cc1-c1ccc(C2CCCCC2)cc1; 45.62

Notebook: CC(C)Cc1cc(CN2Cc3ccccc3S2(=O)=O)nn1-c1ccc(F)cc1 , Inhibition % α1G (10 μM) read as 70.81

Sure, the documented Inhibition % α1G (10 μM) for CC(C)Cc1cc(CN2Cc3ccccc3S2(=O)=O)nn1C(C)(C)C is 60.62

Measured Inhibition % α1G (10 μM) of Cc1ccc(F)c(S(=O)(=O)NCc2cc(CC(C)C)n(-c3ccccc3)n2)c1 : 54.86

Source of measurements: patent US9493423B2
